Target: P2X purinoceptor 7 (Rattus norvegicus, UniProt Q64663)
Sequence (Q64663 whole entry): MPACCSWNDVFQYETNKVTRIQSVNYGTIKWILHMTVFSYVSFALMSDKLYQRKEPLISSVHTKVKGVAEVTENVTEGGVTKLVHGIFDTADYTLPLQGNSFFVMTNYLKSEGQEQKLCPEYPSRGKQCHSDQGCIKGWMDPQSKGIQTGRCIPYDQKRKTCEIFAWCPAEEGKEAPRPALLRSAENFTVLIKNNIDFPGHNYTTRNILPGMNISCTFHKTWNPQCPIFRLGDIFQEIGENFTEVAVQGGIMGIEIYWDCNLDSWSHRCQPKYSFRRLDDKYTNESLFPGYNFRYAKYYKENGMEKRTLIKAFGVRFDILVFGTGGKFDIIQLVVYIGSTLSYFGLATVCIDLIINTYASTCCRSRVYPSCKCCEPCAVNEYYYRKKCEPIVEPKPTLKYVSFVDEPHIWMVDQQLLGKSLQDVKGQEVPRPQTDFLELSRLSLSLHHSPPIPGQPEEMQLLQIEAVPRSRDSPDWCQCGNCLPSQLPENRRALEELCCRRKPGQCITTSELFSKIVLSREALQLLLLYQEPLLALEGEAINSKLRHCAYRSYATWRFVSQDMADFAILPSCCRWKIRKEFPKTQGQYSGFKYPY
PROPERTY LABEL: IC50

| COMPOUND | PROPERTY LABEL | MEASURED RESULT |
| --- | --- | --- |
| O=C1CSC(=O)N1C(CCc1ccncc1)COc1ccc(-c2cccc([N+](=O)[O-])c2)cc1 (stereo not drawn) | IC50 | > 100 µM |
| CN([C@@H](Cc1ccc(OS(=O)(=O)c2cccc3cnccc23)cc1)C(=O)N1CCN(c2ccccc2)CC1)S(=O)(=O)c1cccc2cnccc12 | IC50 | > 100 µM |
| C[S+]([O-])c1ccc(-c2nc(-c3ccncc3)c(-c3ccc(F)cc3)[nH]2)cc1 (stereo not drawn) | IC50 | > 30 µM |

Origin of values: ChEMBL document CHEMBL3600345
